meta.source: the supplement of paper PMC8728848

MEASURED TARGET: Gal(b1-3)GlcNAc(b1-2)Man(a1-3)[Gal(b1-3)GlcNAc(b1-2)Man(a1-6)]Man(b1-4)GlcNAc(b1-4)GlcNAc
ASSAY METHOD TEXT: glycan array binding signal (z-score within array); higher = stronger binding
CONDITIONS: glycan notation: IUPAC condensed, linker removed
The entries come from a sample that favours the strongest signals as a whole.
QUANTITY: glycan array binding signal (z-score)
When you answer, write just the number.

Problem: So what's the measured glycan array binding signal (z-score) for this one? AT5G01260(PC)(40) (Arabidopsis thaliana), Q9LFB0 (protein) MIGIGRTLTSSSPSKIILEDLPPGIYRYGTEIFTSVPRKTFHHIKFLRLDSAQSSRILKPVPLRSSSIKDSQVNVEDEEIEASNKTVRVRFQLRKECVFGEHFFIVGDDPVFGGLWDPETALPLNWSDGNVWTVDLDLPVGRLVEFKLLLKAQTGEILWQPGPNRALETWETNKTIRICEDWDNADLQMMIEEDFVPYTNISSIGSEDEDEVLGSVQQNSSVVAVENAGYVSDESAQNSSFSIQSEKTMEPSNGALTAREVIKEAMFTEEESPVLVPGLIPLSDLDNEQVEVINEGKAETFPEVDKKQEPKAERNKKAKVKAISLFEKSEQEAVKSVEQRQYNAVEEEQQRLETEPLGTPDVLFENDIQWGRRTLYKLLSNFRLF
Result: 0.891
